experiment_description: TTR transcription activators in neuroblastoma reporter cells, primary screen, cell-based, luminescence, SH-SY5Y, TTR promoter Gaussia luciferase (AID 1117267);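 note: cells exposed to compounds for one day before reading; 0% = median of all test compound wells on the plate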
condition_set: at 16.7 µM, active compounds read high, 100% = recombinant luciferase protein wells
Among all 92,000 compounds or so, about 1,200 (1.3%) were called active. The list comes from a sample in which actives are over-represented; it also holds close analogues and randomly drawn compounds.
readout_type: activation (%)
Field format: number, assumed %, no unit text.

Q: Look up activation for this compound: `COc1ccccc1N1CCN(Cc2nnnn2CCc2ccccc2)CC1`
Result: -0.88

Q: Lookup CC(=O)Nc1ccc(N2C(=O)CC(Sc3nccc(C)n3)C2=O)cc1 (configuration not stated)
Result: -1.45

Q: Lookup `O=C(COC(=O)c1ccc2ncsc2c1)Nc1ccc(Cl)cc1`
Result: 1.52

Q: Lookup `Cn1c(=O)c(=O)n(C)c2cc(S(=O)(=O)NCCN3CCN(c4ccccc4F)CC3)ccc21`
Result: -0.31

Q: Lookup O=C(N=C1SC2CS(=O)(=O)CC2N1Cc1ccccc1)c1ccccc1 (configuration not stated)
Result: 1.31

Q: Lookup `O=C(CCc1n[nH]c(=O)[nH]c1=O)N/N=C/c1ccc(Br)o1`
Result: 3.17

Q: Lookup `COc1ccc(NS(=O)(=O)c2ccc(C(=O)Nc3c(C)n(C)n(-c4ccccc4)c3=O)cc2)cc1`
Result: -1.99

###

experiment_description: TTR transcription activators in neuroblastoma reporter cells, primary screen, cell-based, luminescence, SH-SY5Y, TTR promoter Gaussia luciferase (AID 1117267);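 note: cells exposed to compounds for one day before reading; 0% = median of all test compound wells on the plate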
condition_set: at 16.7 µM, active compounds read high, 100% = recombinant luciferase protein wells
Among all 92,000 compounds or so, about 1,200 (1.3%) were called active. This is one part of a sample in which actives are shown more often than they occur.
readout_type: activation

Q: Look up activation for this compound: `COc1ccc(N(C)C(=O)C2CCN(S(=O)(=O)c3cccc4nsnc34)CC2)cc1`
Result: -0.63% (inactive)

Q: Lookup `Cc1cc(C)c2nc3nc(C)cc(C)c3c(N)c2c1`
Result: 13.6% (active)

Q: Lookup `COc1ccc(-c2cc(C(=O)N/N=C/c3cccnc3)c3ccccc3n2)c(OC)c1`
Result: -1.67% (inactive)

Q: Lookup Cc1cccc(C(=O)OC(C)CN2CCCC2)c1 (stereo unspecified)
Result: 2.07% (inactive)

Q: Lookup Cc1cn(C2CC(O)C(CO)O2)c(=O)n(CCCc2ccccc2)c1=O (stereo unspecified)
Result: 1.94% (inactive)

Q: Lookup Cn1cc(CN2CCC(C(O)CCc3ccccc3)CC2)c(-c2ccccc2F)n1 (stereo unspecified)
Result: -1.93% (inactive)
